// provenance: paper PMC10145010

The following are reported IC50 results, target or system PI3Kδ (Homo sapiens).
The response must be a number in nM with no trailing unit.

Worked examples follow.
>>> valuemeasured("O=C(c1cc2nc(-n3c(C(F)F)nc4ccccc43)cc(N3CCOCC3)n2n1)N1CCN(Cc2ccc(F)cc2)CC1")
181
>>> valuemeasured("O=C(c1cc2nc(-n3c(C(F)F)nc4ccccc43)cc(N3CCOCC3)n2n1)N1CCN(Cc2cccc(F)c2)CC1")
92
>>> valuemeasured("Fc1ccccc1CN1CCN(Cc2cc3nc(-n4c(C(F)F)nc5ccccc54)cc(N4CCOCC4)n3n2)CC1")
640

Please find the next compound below.
Recall the reported IC50 of `O=C(c1cc2nc(-n3c(C(F)F)nc4ccccc43)cc(N3CCOCC3)n2n1)N1CCN(Cc2ccccc2F)CC1` when tested on PI3Kδ (Homo sapiens).
Sequence (O00329 whole entry): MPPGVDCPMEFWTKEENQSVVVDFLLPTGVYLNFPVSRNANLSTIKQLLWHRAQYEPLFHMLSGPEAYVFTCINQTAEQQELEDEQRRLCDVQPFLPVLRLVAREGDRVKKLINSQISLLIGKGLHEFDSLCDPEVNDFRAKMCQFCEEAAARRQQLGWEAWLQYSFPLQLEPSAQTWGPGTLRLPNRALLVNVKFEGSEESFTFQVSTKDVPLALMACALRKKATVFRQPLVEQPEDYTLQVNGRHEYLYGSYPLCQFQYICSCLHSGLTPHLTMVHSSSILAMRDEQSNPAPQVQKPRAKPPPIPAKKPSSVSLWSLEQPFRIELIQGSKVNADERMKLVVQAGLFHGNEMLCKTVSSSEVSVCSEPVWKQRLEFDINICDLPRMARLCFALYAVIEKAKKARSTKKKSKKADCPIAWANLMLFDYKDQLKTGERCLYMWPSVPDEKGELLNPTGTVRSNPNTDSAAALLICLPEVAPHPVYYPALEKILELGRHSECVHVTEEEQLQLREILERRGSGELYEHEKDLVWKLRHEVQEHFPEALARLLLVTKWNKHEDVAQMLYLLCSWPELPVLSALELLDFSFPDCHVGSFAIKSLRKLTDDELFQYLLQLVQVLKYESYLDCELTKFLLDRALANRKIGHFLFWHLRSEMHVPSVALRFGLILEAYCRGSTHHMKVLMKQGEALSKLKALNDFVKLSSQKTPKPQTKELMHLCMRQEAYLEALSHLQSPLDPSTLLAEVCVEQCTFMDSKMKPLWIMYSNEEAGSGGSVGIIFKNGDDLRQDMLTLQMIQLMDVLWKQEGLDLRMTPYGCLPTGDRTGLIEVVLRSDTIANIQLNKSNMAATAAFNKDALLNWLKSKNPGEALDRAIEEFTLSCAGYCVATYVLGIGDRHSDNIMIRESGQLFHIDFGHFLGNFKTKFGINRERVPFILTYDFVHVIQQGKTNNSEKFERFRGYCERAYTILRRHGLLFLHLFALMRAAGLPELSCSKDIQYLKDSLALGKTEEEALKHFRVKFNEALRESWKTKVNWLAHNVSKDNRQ
Sequence (P27986 whole entry partner): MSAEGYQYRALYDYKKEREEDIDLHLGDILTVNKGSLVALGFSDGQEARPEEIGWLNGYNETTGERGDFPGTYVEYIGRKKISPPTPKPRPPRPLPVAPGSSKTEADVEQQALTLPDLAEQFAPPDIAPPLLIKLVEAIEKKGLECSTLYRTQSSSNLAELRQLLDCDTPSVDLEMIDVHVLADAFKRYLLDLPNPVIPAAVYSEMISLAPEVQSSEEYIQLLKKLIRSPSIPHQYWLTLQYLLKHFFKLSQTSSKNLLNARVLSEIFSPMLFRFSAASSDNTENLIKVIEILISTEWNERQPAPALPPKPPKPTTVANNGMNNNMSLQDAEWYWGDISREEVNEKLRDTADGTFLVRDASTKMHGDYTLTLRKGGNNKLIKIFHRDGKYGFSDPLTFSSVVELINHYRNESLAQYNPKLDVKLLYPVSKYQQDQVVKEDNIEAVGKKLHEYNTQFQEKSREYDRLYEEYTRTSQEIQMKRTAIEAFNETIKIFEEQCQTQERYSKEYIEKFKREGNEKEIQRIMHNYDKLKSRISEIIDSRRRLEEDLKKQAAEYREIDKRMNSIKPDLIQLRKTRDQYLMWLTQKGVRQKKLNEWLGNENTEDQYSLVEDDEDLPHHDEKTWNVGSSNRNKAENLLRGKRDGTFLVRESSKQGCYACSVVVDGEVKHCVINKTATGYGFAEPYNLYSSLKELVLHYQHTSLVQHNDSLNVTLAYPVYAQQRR
212
